src = ChEMBL document CHEMBL1143319

test: Inhibition of rabbit hind leg tissue microsomes ATPase activity of SERCA assessed as ATP hydrolysis; parameters: species or system Oryctolagus cuniculus
pIC50: −log10 of the molar value.
Let's look at some compounds and their measured pIC50.
measurement-name: pIC50

>>> print(df.to_string())
                                   compound  quantitative_result
0  CC(c1ccc(O)cc1)C(C)c1ccc(O)cc1 (stereo not drawn)                 4.55
1  COc1ccc(C(C)c2cc(C(C)(C)C)cc(C(C)(C)C)c2O)cc1 (stereo not drawn)                 4.45
2          Oc1cc(Cc2ccccc2)c(O)cc1Cc1ccccc1                 5.03
3      CCC(C)(c1ccc(O)c(C)c1)c1ccc(O)c(C)c1                 4.41
4   Cc1cc(C(C)(C)c2cc(C)c(O)c(C)c2)cc(C)c1O                 4.71
5                 CC(C)Cc1ccc(CC(C)C)c(O)c1                 4.73
6                  Oc1ccc(O)c(C2CCCCCCC2)c1                 4.94
7         Oc1ccc2ccccc2c1Cc1c(O)ccc2ccccc12                 4.82
